Values were extracted from paper PMC5540273.

- System: TRPM6
- CONDITION DESCRIPTION: concentration: 1 μM, replicates: in singlicate; n = 1
Measured %Inh, listed per entry.
Respond numerically; units are % and should not be typed.

Some compounds with known %Inh results, for comparison:
Prompt: Request body: readout %Inh, system TRPM6, query Cn1cc(-c2ccc3c(c2)CCN3C(=O)Cc2cccc(C(F)(F)F)c2)c2c(N)ncnc21 . Return the value.
Completion: 0

Prompt: Request body: readout %Inh, system TRPM6, query Cl.Fc1ccccc1COc1ccc(Nc2ncnc3ccc(-c4nnc(C(F)(F)F)o4)cc23)cc1Cl . Return the value.
Completion: 0

Prompt: Request body: readout %Inh, system TRPM6, query C[C@H]1CC[C@@H](C(=O)Nc2ccccc2)CN1c1cc(-c2ccc3c(N)n[nH]c3c2)nc(N)n1 . Return the value.
Completion: 8

***
Prompt: Request body: readout %Inh, system TRPM6, query Cc1ccc(O)cc1Nc1cc(C(F)(F)F)nc2ccc(-c3ccncc3)cc12 . Return the value.
Completion: 0

Prompt: Request body: readout %Inh, system TRPM6, query Nc1nc(-c2ccccn2)c(-c2ccnc3ccccc23)s1 . Return the value.
Completion: 0

Prompt: Request body: readout %Inh, system TRPM6, query Cl.Cl.c1ccc(-c2cc3ccncc3cc2OC2CCNCC2)cc1 . Return the value.
Completion: 15

Prompt: Request body: readout %Inh, system TRPM6, query CCn1c(-c2ccncc2)nc2cnccc21 . Return the value.
Completion: 22

Prompt: Request body: readout %Inh, system TRPM6, query Nc1nc(-c2ccc3c(N)n[nH]c3c2)cc(N2CCCCC2)n1 . Return the value.
Completion: 10

Prompt: Request body: readout %Inh, system TRPM6, query O=C(NCCCN1CCCC1=O)c1cnc(NCc2cc(Cl)ccc2Cl)nc1NC1CCNCC1 . Return the value.
Completion: 0

Prompt: Request body: readout %Inh, system TRPM6, query COC(=O)c1cccc(NC(=O)NCCNc2ccnc(Nc3ccc(F)cc3)n2)c1 . Return the value.
Completion: 0

Prompt: Request body: readout %Inh, system TRPM6, query CC(C)(C)c1ccc(-n2cnc3c(N)ncnc32)cc1 . Return the value.
Completion: 34

Prompt: Request body: readout %Inh, system TRPM6, query c1ccc(-c2ccc3c(-c4ccnc(Nc5ccc6c(c5)OCCO6)n4)cnn3n2)cc1 . Return the value.
Completion: 25

Prompt: Request body: readout %Inh, system TRPM6, query Nc1nccc2scc(-c3ccc4c(c3)CCN4C(=O)Cc3cc(F)ccc3F)c12 . Return the value.
Completion: 5

Prompt: Request body: readout %Inh, system TRPM6, query COc1cc2c(Nc3cccc(NC(=O)c4ccccc4)c3)ncnc2cc1OCCCN1CCOCC1 . Return the value.
Completion: 0

Prompt: Request body: readout %Inh, system TRPM6, query CS(=O)(=O)CCNCc1nc(-c2ccc3ncnc(Nc4ccc(OCc5cccc(F)c5)c(Cl)c4)c3c2)cs1.Cl . Return the value.
Completion: 37

Prompt: Request body: readout %Inh, system TRPM6, query CCc1nc(-c2cccc(C)c2)c(-c2ccnc(NC(=O)c3ccccc3)c2)s1 . Return the value.
Completion: 0

Prompt: Request body: readout %Inh, system TRPM6, query Cc1cc(N2CCC(NS(=O)(=O)c3ccc(F)cc3)CC2)nc(Nc2cccc(C#N)c2)n1.O=C(O)C(F)(F)F . Return the value.
Completion: 0

Prompt: Request body: readout %Inh, system TRPM6, query Nc1nc(-c2cccnc2)c(-c2ccnc3ccccc23)s1 . Return the value.
Completion: 14

Prompt: Request body: readout %Inh, system TRPM6, query COc1ccc(Nc2nccc(N3CCC(NC(=O)Nc4ccc5c(c4)OCO5)C3)n2)cc1 (centres unmarked) . Return the value.
Completion: 0

Prompt: Request body: readout %Inh, system TRPM6, query OCCOCCn1ccc2ncnc(Nc3ccc(Oc4cccc(Cl)c4)c(Cl)c3)c21 . Return the value.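 Further: KINOMEscan kinase panel screen.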
Completion: 0
